Where do the numbers come from? From paper PMC11480511.

System: HOP-62
Experiment: NCI single-dose growth inhibition screen
Assay type: cell-based
Conditions: Homo sapiens; Non-Small Cell Lung Cancer HOP-62; single dose 10^−5 M
quantity_kind: inhibition at 10 µM (%)

{"molecule": "O=C(O)c1cn(C2CC2)c2cc(N3CCN(C(=O)CCCN4C(=O)S/C(=C\\c5ccc(Cl)cc5)C4=O)CC3)c(F)cc2c1=O [3 h]", "units_label": "%", "qualifier_operator": "=", "value": 2.9}
{"molecule": "Cc1ccc(/C=C2\\SC(=O)N(CCCC(=O)N3CCN(c4cc5c(cc4F)c(=O)c(C(=O)O)cn5C4CC4)CC3)C2=O)cc1 [3c]", "units_label": "%", "qualifier_operator": "<", "value": 0}
{"molecule": "O=C(O)c1cn(C2CC2)c2cc(N3CCN(C(=O)CCCN4C(=O)S/C(=C\\c5ccc(F)cc5)C4=O)CC3)c(F)cc2c1=O [3i]", "units_label": "%", "qualifier_operator": "=", "value": 2.9}

---

System: MDA-MB-435
Assay: NCI single-dose growth inhibition screen
Type: cell-based
Conditions: Homo sapiens; Melanoma MDA-MB-435; single dose 10^−5 M
Entries annotated with measured inhibition at 10 µM

{"compound": "O=C(O)c1cn(C2CC2)c2cc(N3CCN(C(=O)CCCN4C(=O)S/C(=C\\c5ccc(Cl)cc5)C4=O)CC3)c(F)cc2c1=O [3 h]", "inhibition at 10 µM": "< 0%"}
{"compound": "Cc1ccc(/C=C2\\SC(=O)N(CCCC(=O)N3CCN(c4cc5c(cc4F)c(=O)c(C(=O)O)cn5C4CC4)CC3)C2=O)cc1 [3c]", "inhibition at 10 µM": "< 0%"}
{"compound": "O=C(O)c1cn(C2CC2)c2cc(N3CCN(C(=O)CCCN4C(=O)SC(=Cc5cccc([N+](=O)[O-])c5)C4=O)CC3)c(F)cc2c1=O [3d]", "inhibition at 10 µM": "< 0%"}
{"compound": "COc1cc(/C=C2\\SC(=O)N(CCCC(=O)N3CCN(c4cc5c(cc4F)c(=O)c(C(=O)O)cn5C4CC4)CC3)C2=O)cc(OC)c1OC [3 g]", "inhibition at 10 µM": "< 0%"}
{"compound": "COc1ccc(/C=C2\\SC(=O)N(CCCC(=O)N3CCN(c4cc5c(cc4F)c(=O)c(C(=O)O)cn5C4CC4)CC3)C2=O)cc1OC [3f]", "inhibition at 10 µM": "< 0%"}
{"compound": "COc1ccc(C=C2SC(=O)N(CCCC(=O)N3CCN(c4cc5c(cc4F)c(=O)c(C(=O)O)cn5C4CC4)CC3)C2=O)cc1 [3e]", "inhibition at 10 µM": "< 0%"}
{"compound": "O=C(O)c1cn(C2CC2)c2cc(N3CCN(C(=O)CCCN4C(=O)SC(=Cc5cccc6ccccc56)C4=O)CC3)c(F)cc2c1=O [3j]", "inhibition at 10 µM": "12.8%"}
{"compound": "O=C(O)c1cn(C2CC2)c2cc(N3CCN(C(=O)CCCN4C(=O)SC(=Cc5ccccc5)C4=O)CC3)c(F)cc2c1=O [3a]", "inhibition at 10 µM": "7.8%"}
{"compound": "O=C(O)c1cn(C2CC2)c2cc(N3CCN(C(=O)CCCN4C(=O)S/C(=C\\c5ccc(F)cc5)C4=O)CC3)c(F)cc2c1=O [3i]", "inhibition at 10 µM": "1.6%"}
{"compound": "O=C(O)c1cn(C2CC2)c2cc(N3CCN(C(=O)CCCN4C(=O)S/C(=C\\c5ccc([N+](=O)[O-])cc5)C4=O)CC3)c(F)cc2c1=O [3k]", "inhibition at 10 µM": "< 0%"}
{"compound": "O=C(O)c1cn(C2CC2)c2cc(N3CCN(C(=O)CCCN4C(=O)CSC4=O)CC3)c(F)cc2c1=O [3 L]", "inhibition at 10 µM": "< 0%"}

---

Tested on: A549/ATCC
Assay: NCI single-dose growth inhibition screen
Format: cell-based
Conditions: Homo sapiens; Non-Small Cell Lung Cancer A549/ATCC; single dose 10^−5 M

{"compound": "COc1ccc(/C=C2\\SC(=O)N(CCCC(=O)N3CCN(c4cc5c(cc4F)c(=O)c(C(=O)O)cn5C4CC4)CC3)C2=O)cc1OC [3f]", "units_label": "%", "inhibition at 10 µM": 1.3}
{"compound": "O=C(O)c1cn(C2CC2)c2cc(N3CCN(C(=O)CCCN4C(=O)SC(=Cc5cccc([N+](=O)[O-])c5)C4=O)CC3)c(F)cc2c1=O [3d]", "units_label": "%", "inhibition at 10 µM": 7.8}
{"compound": "O=C(O)c1cn(C2CC2)c2cc(N3CCN(C(=O)CCCN4C(=O)S/C(=C\\c5ccc(Cl)cc5)C4=O)CC3)c(F)cc2c1=O [3 h]", "units_label": "%", "inhibition at 10 µM": 3.4}

---

Attribute: inhibition at 10 µM
System: T-47D
Experiment: NCI single-dose growth inhibition screen
Type: cell-based
Details: Homo sapiens, T47D; Breast Cancer T-47D; single dose 10^−5 M
quantity_kind: inhibition at 10 µM (%)

{"compound": "O=C(O)c1cn(C2CC2)c2cc(N3CCN(C(=O)CCCN4C(=O)SC(=Cc5cccc6ccccc56)C4=O)CC3)c(F)cc2c1=O [3j]", "quantity_kind": "inhibition at 10 µM", "qualifier_operator": "=", "value": 7.5}
{"compound": "COc1cc(/C=C2\\SC(=O)N(CCCC(=O)N3CCN(c4cc5c(cc4F)c(=O)c(C(=O)O)cn5C4CC4)CC3)C2=O)cc(OC)c1OC [3 g]", "quantity_kind": "inhibition at 10 µM", "qualifier_operator": "<", "value": 0}
{"compound": "O=C(O)c1cn(C2CC2)c2cc(N3CCN(C(=O)CCCN4C(=O)SC(=Cc5ccccc5)C4=O)CC3)c(F)cc2c1=O [3a]", "quantity_kind": "inhibition at 10 µM", "qualifier_operator": "=", "value": 8.1}
{"compound": "COc1ccc(C=C2SC(=O)N(CCCC(=O)N3CCN(c4cc5c(cc4F)c(=O)c(C(=O)O)cn5C4CC4)CC3)C2=O)cc1 [3e]", "quantity_kind": "inhibition at 10 µM", "qualifier_operator": "=", "value": 0.6}
{"compound": "COc1ccc(/C=C2\\SC(=O)N(CCCC(=O)N3CCN(c4cc5c(cc4F)c(=O)c(C(=O)O)cn5C4CC4)CC3)C2=O)cc1OC [3f]", "quantity_kind": "inhibition at 10 µM", "qualifier_operator": "=", "value": 0.9}
{"compound": "O=C(O)c1cn(C2CC2)c2cc(N3CCN(C(=O)CCCN4C(=O)S/C(=C\\c5ccc([N+](=O)[O-])cc5)C4=O)CC3)c(F)cc2c1=O [3k]", "quantity_kind": "inhibition at 10 µM", "qualifier_operator": "<", "value": 0}
{"compound": "O=C(O)c1cn(C2CC2)c2cc(N3CCN(C(=O)CCCN4C(=O)SC(=Cc5cccc([N+](=O)[O-])c5)C4=O)CC3)c(F)cc2c1=O [3d]", "quantity_kind": "inhibition at 10 µM", "qualifier_operator": "<", "value": 0}

---

Test system: human melanoma LOX IMVI
Settings: read-out: In vitro cytotoxicity (IC50) LOX IMVI (µM ± SEM), MTT assay
quantity_kind: IC50 (µM)

{"compound": "N.N.[Cl][Pt][Cl] [Cisplatin, reference compound]", "target": "human melanoma LOX IMVI", "quantity_kind": "IC50", "value": 5.07}

---

Tested on: A549/ATCC
Experiment: NCI single-dose growth inhibition screen
Type: cell-based
Settings: Homo sapiens; Non-Small Cell Lung Cancer A549/ATCC; single dose 10^−5 M
Recorded inhibition at 10 µM by entry
quantity_kind: inhibition at 10 µM (%)

{"compound": "COc1cc(/C=C2\\SC(=O)N(CCCC(=O)N3CCN(c4cc5c(cc4F)c(=O)c(C(=O)O)cn5C4CC4)CC3)C2=O)cc(OC)c1OC [3 g]", "value": 3.5}
{"compound": "O=C(O)c1cn(C2CC2)c2cc(N3CCN(C(=O)CCCN4C(=O)SC(=Cc5cccc6ccccc56)C4=O)CC3)c(F)cc2c1=O [3j]", "value": 9.3}
{"compound": "O=C(O)c1cn(C2CC2)c2cc(N3CCN(C(=O)CCCN4C(=O)CSC4=O)CC3)c(F)cc2c1=O [3 L]", "value": 6.7}
{"compound": "O=C(O)c1cn(C2CC2)c2cc(N3CCN(C(=O)CCCN4C(=O)S/C(=C\\c5ccc(F)cc5)C4=O)CC3)c(F)cc2c1=O [3i]", "value": 10.4}

---

System: RXF 393
Experiment: NCI single-dose growth inhibition screen
Format: cell-based
Details: Homo sapiens; Renal Cancer RXF 393; single dose 10^−5 M

{"entry_smiles": "O=C(O)c1cn(C2CC2)c2cc(N3CCN(C(=O)CCCN4C(=O)SC(=Cc5cccc([N+](=O)[O-])c5)C4=O)CC3)c(F)cc2c1=O", "inhibition at 10 µM": "< 0%"}
{"entry_smiles": "O=C(O)c1cn(C2CC2)c2cc(N3CCN(C(=O)CCCN4C(=O)S/C(=C\\c5ccc([N+](=O)[O-])cc5)C4=O)CC3)c(F)cc2c1=O", "inhibition at 10 µM": "47.9%"}
{"entry_smiles": "COc1cc(/C=C2\\SC(=O)N(CCCC(=O)N3CCN(c4cc5c(cc4F)c(=O)c(C(=O)O)cn5C4CC4)CC3)C2=O)cc(OC)c1OC", "inhibition at 10 µM": "< 0%"}
{"entry_smiles": "COc1ccc(C=C2SC(=O)N(CCCC(=O)N3CCN(c4cc5c(cc4F)c(=O)c(C(=O)O)cn5C4CC4)CC3)C2=O)cc1", "inhibition at 10 µM": "< 0%"}
{"entry_smiles": "Cc1ccc(/C=C2\\SC(=O)N(CCCC(=O)N3CCN(c4cc5c(cc4F)c(=O)c(C(=O)O)cn5C4CC4)CC3)C2=O)cc1", "inhibition at 10 µM": "7.2%"}
{"entry_smiles": "O=C(O)c1cn(C2CC2)c2cc(N3CCN(C(=O)CCCN4C(=O)S/C(=C\\c5ccc(Cl)cc5)C4=O)CC3)c(F)cc2c1=O", "inhibition at 10 µM": "< 0%"}
{"entry_smiles": "COc1ccc(/C=C2\\SC(=O)N(CCCC(=O)N3CCN(c4cc5c(cc4F)c(=O)c(C(=O)O)cn5C4CC4)CC3)C2=O)cc1OC", "inhibition at 10 µM": "< 0%"}
{"entry_smiles": "O=C(O)c1cn(C2CC2)c2cc(N3CCN(C(=O)CCCN4C(=O)S/C(=C\\c5ccc(F)cc5)C4=O)CC3)c(F)cc2c1=O", "inhibition at 10 µM": "< 0%"}
{"entry_smiles": "O=C(O)c1cn(C2CC2)c2cc(N3CCN(C(=O)CCCN4C(=O)CSC4=O)CC3)c(F)cc2c1=O", "inhibition at 10 µM": "30.7%"}
{"entry_smiles": "O=C(O)c1cn(C2CC2)c2cc(N3CCN(C(=O)CCCN4C(=O)SC(=Cc5ccccc5)C4=O)CC3)c(F)cc2c1=O", "inhibition at 10 µM": "< 0%"}
{"entry_smiles": "O=C(O)c1cn(C2CC2)c2cc(N3CCN(C(=O)CCCN4C(=O)SC(=Cc5cccc6ccccc56)C4=O)CC3)c(F)cc2c1=O", "inhibition at 10 µM": "11.2%"}
